Sourced from patent US20130102645A1

test: rat pharmacokinetics, plasma LC-MS/MS; type: in vivo; conditions: male, Sprague-Dawley, plasma, iv, 5 mg/kg, after intravenous administration, read-out: terminal plasma half-life (converted)
metric.name: half-life (min)

* CCOc1cc(C=C2S/C(=N/c3ccc(C(=O)O)cc3)N(C)C2=O)ccc1O (stereo in doubt) | 30

* * *

Assay: solubility
Assay type: physicochemical
Conditions: pH 7.4, aqueous buffer; PBS 7.4
Procedure: Sufficiently concentrated solutions are readily achievable. AV-398 is soluble in PBS 7.4 at 100 μg/ml, in Tris.Cl buffer at 1 mg/ml, and as a sodium salt at least up to 20 mg/ml.
metric.name: solubility (µg/mL)

- CCOc1cc(C=C2S/C(=N/c3ccc(C(=O)O)cc3)N(C)C2=O)ccc1O (stereo in doubt): 100
